Target: HLA-A*24:02
Assay: IEDB peptide-MHC binding, purified MHC/competitive/fluorescence; bounds were set here for any values at or beyond the usual limits of such assays
Settings: source organism: Variola virus
recordedEndpoint: pIC50
Would you please state pIC50, meaning minus log10 of the concentration in mol/L, as a bare number?

Exercise: Quote pIC50 reported for LKVFLPNPA please.
Solution: 4.69

* * *

Target: HLA-B*39:01
Assay: IEDB peptide-MHC binding, purified MHC/competitive/fluorescence; filed as Kd, often an IC50 or EC50 that approximates it; bounds were set here for any values at or beyond the usual limits of such assays
Conditions: source organism: Streptococcus pneumoniae TIGR4
recordedEndpoint: Kd

Exercise: Return Kd for the following sequence: CLSDEINHV
Solution: ≥ 20 µM

* * *

Biological target: HLA-A*03:01
Assay: IEDB peptide-MHC binding, purified MHC/direct/fluorescence; filed as Kd, often an IC50 or EC50 that approximates it; bounds were set here for any values at or beyond the usual limits of such assays
Settings: source organism: Mammarenavirus brazilense
recordedEndpoint: Kd

Exercise: Recall and state the measured Kd for EFKSRFFVM .
Solution: ≥ 20 µM

* * *

Examples of sequences with documented Kd follow.
Target: HLA-A*68:02
Assay: IEDB peptide-MHC binding, purified MHC/competitive/fluorescence; filed as Kd, often an IC50 or EC50 that approximates it; bounds were set here for any values at or beyond the usual limits of such assays
Conditions: source organism: Human immunodeficiency virus 1
Please give a number only; it is taken to be in nM.

EELKSLYNTI = 1780

Now, please, on to the next sequence.
Exercise: Please report Kd for the following sequence: VLYCVHQRV
Solution: 223

* * *

Target: HLA-B*15:42
Experiment: IEDB peptide-MHC binding, purified MHC/competitive/fluorescence; filed as Kd, often an IC50 or EC50 that approximates it; bounds were set here for any values at or beyond the usual limits of such assays
Settings: source organism: Yersinia pestis CO92
pKd: −log10 of the molar value.
recordedEndpoint: pKd

Exercise: Determine its reported pKd: YSFSRAYTL
Solution: ≤ 5.30

* * *

Molecular target: HLA-A*68:23
Test: IEDB peptide-MHC binding, purified MHC/competitive/fluorescence; filed as Kd, often an IC50 or EC50 that approximates it; bounds were set here for any values at or beyond the usual limits of such assays
Conditions: source organism: Yersinia pestis CO92
recordedEndpoint: Kd (nM)
Number in nM, nothing else.

Exercise: Supply Kd measured with HLA-A*68:23 for YSFSRAYTL .
Solution: 9.3

* * *

Biological target: HLA-A*32:07
Assay: IEDB peptide-MHC binding, purified MHC/competitive/fluorescence; filed as Kd, often an IC50 or EC50 that approximates it; bounds were set here for any values at or beyond the usual limits of such assays
Details: source organism: Escherichia coli O157:H7 str. EDL933
recordedEndpoint: Kd (nM)
The figure you give is taken to be in nM; do not add the unit.

Exercise: Report its Kd with HLA-A*32:07 as the test system: RMMGVKYLM
Solution: 1.1

* * *

Target: HLA-B*08:01
Assay: IEDB peptide-MHC binding, purified MHC/direct/fluorescence; filed as Kd, often an IC50 or EC50 that approximates it; bounds were set here for any values at or beyond the usual limits of such assays
Details: source organism: Escherichia coli
recordedEndpoint: Kd

Exercise: # return recorded Kd for input SHDTIGPYY
Solution: ≥ 20 µM
